Origin of values: PubChem BioAssay

- ASSAY_DETAILS: CREB reporter modulators without forskolin, primary screen, cell-based, PC12, CRE-LacZ reporter, unstimulated (AID 1145)
- CONDITION_PARAMETERS: no forskolin, luminescence, 4.5 h, higher = more signal, called active from +8 up or from −8 down
The source made the active and inactive calls.
z-score by entry:

Data request, read-out z-score, for CO[C@H]1COC(=O)[C@H](CCSC)NC(=O)CC=C[C@@H](C)COC(=O)[C@@H](OCc2ccccc2)C=C[C@@H]1C
-0.0223 (inactive)

***
Request the reported z-score associated with Cc1ccc(S(=O)(=O)N[C@H]2COC(=O)CC=C[C@H](C)COC(=O)N[C@@H](C)C(=O)CC=C[C@@H]2C)cc1
1.6 (inactive)

Reported z-score, compound O=C(O)[C@@H]1Cc2c([nH]c3ccccc23)[C@@H](c2ccccc2)N1 : ____
0.109 (inactive)

What z-score value was documented for this compound, CC1=C([C@H](O)CCc2ccccc2)[C@H](CO)[C@@H]2C(=O)N(Cc3ccccc3)C(=O)[C@@H]2C1 ?
0.851 (inactive)

* * *

- ASSAY_DETAILS: A549 lung cancer cell viability effects, profiling panel, resazurin fluorescence, 24 h, PK04 Diversity Set (AID 1171); further: test concentration not given here
- CONDITION_PARAMETERS: higher = more signal, called active from +8 up or from −8 down
The source made the active and inactive calls.
# key: entry, value: z-score

Here are 2 molecules together with their reported answers.
z-score for CCC(=O)[C@]12O[C@@]3([C@@H]4C(=O)OCC[C@@H]41)N(Cc1ccccc1)C(C)=C(C(=O)OC)[C@@H](c1ccccc1)N3C2=O ?
0.26 (inactive)

# input molecule: CO[C@H]1COC(=O)[C@@H](C)NC(=O)CC=C[C@@H](C)[C@H](OC)COC(=O)CC=C[C@@H]1C ; wanted: its z-score
0.775 (inactive)

Next:
Data request, read-out z-score, for C[N+](C)(C)CCCCNC(=O)[C@H]1C[C@H]2C(=O)NCC(=O)N2[C@H]1c1cccc(OCCO)c1
-0.0078 (inactive)

Return reported z-score; argument: O=C(N1CCCCC1)[C@@]1(CCS(=O)(=O)c2ccccc2)N=C(c2ccc(OCCCO)cc2)O[C@H]1c1ccccc1
-0.908 (inactive)

Given the entry CCCCCCc1nc(-c2cc(C)c(OC)c(C)c2)cc2c1[Si](C(C)C)(C(C)C)O[C@H]2c1ccccc1 , report its measured z-score.
0.732 (inactive)

Can you share its z-score? I mean this molecule: CC(C)N1CC=CC23O[C@@H]4/C=C\CCCOC(=O)C4[C@H]2C(=O)N(CCO)[C@@H]3C1=O (some centres not stated)
1.39 (inactive)

What does the record list as z-score for O=C1O[C@H](c2ccccc2)[C@H](c2ccccc2)N2[C@H]1[C@@H](C(=O)Nc1nc3ccccc3s1)[C@]1(C(=O)Nc3ccc(C#CC4=CCCCC4)cc31)[C@H]2c1ccccc1OCCO ?
-0.893 (inactive)

* * *

- ASSAY_DETAILS: small-molecule binders of probe aLefty1, primary screen, biochemical, small-molecule microarray, 635/667 nm fluorescence (AID 1153);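 further: score merges spot fluorescence with signal-to-noise ratio from the scanned slide images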
- CONDITION_PARAMETERS: higher = more signal
In this section, each of the compounds is paired with its reported composite z-score.
Form field (numeric): enter value without unit.

See these solved cases before continuing.
Can you share its composite z-score? I mean this compound: O=C1OCC=C[C@H]2OC34C=CCN(Cc5ccccc5)C(=O)[C@H]3N(CCO)C(=O)[C@@H]4[C@@H]12 (some centres undefined)
-0.0104

Record request: composite z-score value, item COc1ccc([Si](C)(C)[C@H]2[C@H](CC(=O)N3Cc4ccccc4C[C@H]3CO)O[C@@]3(C(=O)N(Cc4cccc(N5CCOC5=O)c4)c4ccccc43)[C@@H]2C)cc1
-0.012

Consider the compound CCOC(=O)C1=CCC(c2cccc3ccccc23)N(S(=O)(=O)c2ccc(C)cc2)C1 (centres undefined) and give its measured composite z-score.
0.071

Next:
Which composite z-score is listed for C[C@H]1COC(=O)[C@@H]2CCCN2C(=O)[C@@H](C)COC(=O)[C@@H]2CCCN2C1=O ?
-0.147
